# TGI values compiled below
tested on: ACHN renal; test: NCI tumour cell line growth inhibition, 48 h
quantity name: TGI

INSERT INTO measurements (molecule, recorded_measurement) VALUES
  ('CC1(C)OP(=O)(c2ccccc2)C=C1Sc1ccc([N+](=O)[O-])cc1[N+](=O)[O-] (stereo not drawn)', '> 100 µM'),
  ('CCCCCC(=O)N[C@@H](c1ccco1)[C@@H](O)C(=O)O[C@H]1C[C@@]2(O)[C@@H](OC(=O)c3ccccc3)[C@@H]3[C@]4(OC(C)=O)CO[C@@H]4C[C@H](O)[C@@]3(C)C(=O)[C@H](OC(C)=O)C(=C1C)C2(C)C', '> 25 µM'),
  ('Nc1nnc2c(-c3ccccc3)[nH]nc2n1', '> 100 µM'),
  ('O=C(CS(=O)(=O)c1nc2ccccc2nc1-c1ccccc1)Nc1ccc(F)cc1', '> 100 µM'),
  ('O=C(CNc1ccccn1)Nn1cnc2ccc(S(=O)(=O)Nc3ccccn3)cc2c1=O', '> 100 µM'),
  ('Cc1cc2ncn(-c3nc4ccccc4nc3C(C#N)S(C)(=O)=O)c2cc1C (stereo not drawn)', '> 100 µM'),
  ('COc1ccc(-n2c(CCC(=O)O)nc3c2C(=O)c2ccccc2C3=O)cc1', '> 100 µM'),
  ('COC1(CC[C@@H](C)COC2OC(CO)C(O)C(O)C2O)O[C@H]2C[C@H]3[C@@H]4CC=C5C[C@@H](OC6OC(CO)C(OC7OC(C)C(O)C(O)C7O)C(O)C6OC6OC(C)C(O)C(O)C6O)CC[C@]5(C)[C@H]4CC[C@]3(C)[C@H]2[C@@H]1C (stereo partly drawn)', '13.9 µM');

These data points were gathered from PubChem BioAssay (NCI).
